Value source: patent US20120101100A1

The following molecules each carry a recorded pIC50 for UniProt P0A0K8.
pIC50: −log10 of the molar value.

{"columns": ["molecule", "pIC50"],
 "data": [
  ["CCNC(=O)Nc1cc(-c2nc(C(F)(F)F)cs2)c(-c2cncc(-c3ncc[nH]3)c2)cn1 [Example 25]", 8.52],
  ["CCNC(=O)Nc1cc(-c2nc(C(F)(F)F)cs2)c(-c2cccc(C#N)n2)cn1 [Example 32]", 7.21],
  ["CCNC(=O)Nc1cc(-c2nc(C(F)(F)F)cs2)c(-c2cccnc2)cn1 [Example 14]", 8.00]
]}

----------
assayed_system: S. aureus GyrB ATPase (Staphylococcus aureus)
test_name: S. aureus (SAU) GyrB ATPase inhibition, malachite green phosphate detection (E. coli GyrA + S. aureus GyrB)
Format: biochemical
measurement_context: compound concentration of 1.0 μM unless otherwise noted; average value where assay was carried out more than once; read-out: S. aureus (SAU) GyrB ATPase % Inhibition

{"columns": ["compound", "inhibition at 1 µM"],
 "data": [
  ["CCCCOc1ncc(-c2cnc(NC(=O)NCC)cc2-c2nc(C(F)(F)F)cs2)cc1-c1nnc(C)o1 [Example 41]", "109%"],
  ["CCNC(=O)Nc1cc(-c2nc(C(F)(F)F)cs2)c(-c2cc(-c3n[nH]c(=O)o3)cnc2OC2CCNCC2)cn1 [Example 109]", "98%"],
  ["CCNC(=O)Nc1cc(-c2nc(-c3cccnc3OCCOC)cs2)c(-c2cnc(OC)c(-c3n[nH]c(=O)o3)c2)cn1 [Example 207]", "101%"],
  ["CCNC(=O)Nc1cc(-c2nc(C(F)(F)F)cs2)c(-c2cncc(-c3nnc(N4CC[C@@H](O)C4)o3)c2)cn1 [Example 178]", "97%"],
  ["CCNC(=O)Nc1cc(-c2nnc(-c3ccncc3)o2)c(-c2cncc(-c3n[nH]c(=O)o3)c2)cn1 [Example 38]", "108%"],
  ["CCNC(=O)Nc1cc(-c2nc(C(F)(F)F)cs2)c(-c2cnc(N)c(-c3nnc(C)o3)c2)cn1 [Example 258]", "96%"],
  ["CCNC(=O)Nc1cc(-c2nc(C(F)(F)F)cs2)c(-c2cc(-c3n[nH]c(=O)o3)cnc2OCC2CC2)cn1 [Example 216]", "96%"]
]}

----------
assayed_system: S. aureus GyrB ATPase (Staphylococcus aureus)
test_name: S. aureus (SAU) GyrB ATPase inhibition, malachite green phosphate detection (E. coli GyrA + S. aureus GyrB)
Type: biochemical
measurement_context: compound concentration of 1.0 μM unless otherwise noted; average value where assay was carried out more than once; read-out: S. aureus (SAU) GyrB ATPase % Inhibition
Structures can show the parent of a compound that is named as a salt.

{"columns": ["molecule", "inhibition at 1 µM"],
 "data": [
  ["CCNC(=O)Nc1cc(-c2nc(C(F)(F)F)cs2)c(-c2ccnc(-c3nnc([C@@H](N)C4CCCCC4)o3)c2)cn1 [Example 241]", "97%"],
  ["CCNC(=O)Nc1cc(-c2nc(C(F)(F)F)c(CNC3CCCCC3)s2)c(-c2cncc(-c3n[nH]c(=O)o3)c2)cn1 [Example 52, hydrochloride]", "108%"],
  ["CCNC(=O)Nc1cc(-c2nc(C(F)(F)F)cs2)c(-c2cncc(-c3nnn[nH]3)c2)cn1 [Example 3]", "88%"],
  ["CCNC(=O)Nc1cc(-c2nc(C3CCOC(C)(C)C3)cs2)c(-c2cncc(-c3n[nH]c(=O)o3)c2)cn1 (stereo not shown) [Example 212]", "97%"],
  ["CCNC(=O)Nc1cc(-c2nc(C(F)(F)F)cs2)c(-c2cncc(-c3nnc(C(C)C)o3)c2)cn1 [Example 4]", "99%"],
  ["CCNC(=O)Nc1cc(-c2nc(C(F)(F)F)cs2)c(-c2cncc(-c3nnc(CC(C)=O)o3)c2)cn1 [Example 265]", "101%"],
  ["CCNC(=O)Nc1cc(-c2nc(C(F)(F)F)cs2)c(-c2cc(-c3n[nH]c(=O)o3)cnc2OCCN(CC)CC)cn1 [Example 119]", "96%"]
]}

----------
assayed_system: S. aureus GyrB ATPase (Staphylococcus aureus)
test_name: S. aureus (SAU) GyrB ATPase inhibition, malachite green phosphate detection (E. coli GyrA + S. aureus GyrB)
Type: biochemical
measurement_context: compound concentration of 1.0 μM unless otherwise noted; average value where assay was carried out more than once; read-out: S. aureus (SAU) GyrB ATPase % Inhibition
measured_attribute: inhibition at 1 µM (%)

{"columns": ["compound", "reported_measurement"],
 "data": [
  ["CCNC(=O)Nc1cc(-c2nc(-c3ccccc3)cs2)c(-c2cc(-c3n[nH]c(=O)o3)cnc2CC)cn1", 95],
  ["CCNC(=O)Nc1cc(-c2nc(C(F)(F)F)cs2)c(-c2ccnc(-c3nnc(C)o3)c2)cn1", 93],
  ["CCCNC(=O)Nc1cc(-c2nc(C(F)(F)F)cs2)c(-c2cncc(-c3nnc(C)o3)c2)cn1", 95],
  ["CCNC(=O)Nc1cc(-c2nc(C(F)(F)F)c(C(=O)NC3CCCCC3)s2)c(-c2cncc(-c3n[nH]c(=O)o3)c2)cn1", 91],
  ["CCNC(=O)Nc1cc(C2=NC(OC)(C(F)(F)F)CS2)c(-c2cncc(-c3n[nH]c(=O)o3)c2)cn1 (centres unmarked)", 98],
  ["O=C(NCC(F)F)Nc1cc(-c2nc(C(F)(F)F)cs2)c(-c2cncc(-c3n[nH]c(=O)o3)c2)cn1", 105],
  ["CCNC(=O)Nc1cc(-c2nc(-c3cnn(C)c3)cs2)c(-c2cnc(OC)c(-c3n[nH]c(=O)o3)c2)cn1", 100],
  ["CCNC(=O)Nc1cc(-c2nc(C(F)(F)F)cs2)c(-c2cc(-c3nnc(C)o3)cnc2OCC2CCOCC2)cn1", 45],
  ["CCNC(=O)Nc1cc(-c2nc(-c3ccccc3)cs2)c(-c2nc(-c3ncccn3)c(-c3n[nH]c(=O)o3)s2)cn1", 94],
  ["CCNC(=O)Nc1cc(-c2nc(C(F)(F)F)cs2)c(-c2cncc(S(C)(=O)=O)c2)cn1", 114],
  ["O=C(NCC1CC1)Nc1cc(-c2nc(C(F)(F)F)cs2)c(-c2cncc(-c3n[nH]c(=O)o3)c2)cn1", 95],
  ["CCNC(=O)Nc1cc(-c2nc(C(F)(F)F)cs2)c(-c2nc(-c3ncnn3C)c(-c3n[nH]c(=O)o3)s2)cn1", 112],
  ["CCNC(=O)Nc1cc(-c2nc(C(F)(F)F)cs2)c(-c2cncc(-c3noc(=S)[nH]3)c2)cn1", 113],
  ["CCNC(=O)Nc1cc(-c2nc(C(F)(F)F)cs2)c(-c2nc(C)cc(-c3n[nH]c(=O)o3)n2)cn1", 93]
]}

----------
We begin with a simple list: items and their reported inhibition at 1 µM.
assayed_system: S. aureus GyrB ATPase (Staphylococcus aureus, UniProt P0A0K8)
Sequence (P0A0K8 whole entry): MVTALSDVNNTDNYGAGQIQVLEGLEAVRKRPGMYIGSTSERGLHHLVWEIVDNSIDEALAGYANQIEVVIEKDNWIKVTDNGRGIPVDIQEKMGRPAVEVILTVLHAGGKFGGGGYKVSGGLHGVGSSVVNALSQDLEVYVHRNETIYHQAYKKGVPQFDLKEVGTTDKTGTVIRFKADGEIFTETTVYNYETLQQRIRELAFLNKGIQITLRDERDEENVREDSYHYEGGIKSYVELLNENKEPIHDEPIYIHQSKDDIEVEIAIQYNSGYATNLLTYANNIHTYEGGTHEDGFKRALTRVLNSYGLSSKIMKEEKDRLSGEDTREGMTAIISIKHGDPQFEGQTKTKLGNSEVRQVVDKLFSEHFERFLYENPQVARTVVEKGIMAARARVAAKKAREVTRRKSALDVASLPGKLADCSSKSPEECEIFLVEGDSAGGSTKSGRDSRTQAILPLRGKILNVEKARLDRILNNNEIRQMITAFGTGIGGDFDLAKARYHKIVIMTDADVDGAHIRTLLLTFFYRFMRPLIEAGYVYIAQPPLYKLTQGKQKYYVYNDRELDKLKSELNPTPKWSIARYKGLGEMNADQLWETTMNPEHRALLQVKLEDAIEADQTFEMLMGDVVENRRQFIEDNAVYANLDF
Sequence (P0AES4 whole entry, further chain): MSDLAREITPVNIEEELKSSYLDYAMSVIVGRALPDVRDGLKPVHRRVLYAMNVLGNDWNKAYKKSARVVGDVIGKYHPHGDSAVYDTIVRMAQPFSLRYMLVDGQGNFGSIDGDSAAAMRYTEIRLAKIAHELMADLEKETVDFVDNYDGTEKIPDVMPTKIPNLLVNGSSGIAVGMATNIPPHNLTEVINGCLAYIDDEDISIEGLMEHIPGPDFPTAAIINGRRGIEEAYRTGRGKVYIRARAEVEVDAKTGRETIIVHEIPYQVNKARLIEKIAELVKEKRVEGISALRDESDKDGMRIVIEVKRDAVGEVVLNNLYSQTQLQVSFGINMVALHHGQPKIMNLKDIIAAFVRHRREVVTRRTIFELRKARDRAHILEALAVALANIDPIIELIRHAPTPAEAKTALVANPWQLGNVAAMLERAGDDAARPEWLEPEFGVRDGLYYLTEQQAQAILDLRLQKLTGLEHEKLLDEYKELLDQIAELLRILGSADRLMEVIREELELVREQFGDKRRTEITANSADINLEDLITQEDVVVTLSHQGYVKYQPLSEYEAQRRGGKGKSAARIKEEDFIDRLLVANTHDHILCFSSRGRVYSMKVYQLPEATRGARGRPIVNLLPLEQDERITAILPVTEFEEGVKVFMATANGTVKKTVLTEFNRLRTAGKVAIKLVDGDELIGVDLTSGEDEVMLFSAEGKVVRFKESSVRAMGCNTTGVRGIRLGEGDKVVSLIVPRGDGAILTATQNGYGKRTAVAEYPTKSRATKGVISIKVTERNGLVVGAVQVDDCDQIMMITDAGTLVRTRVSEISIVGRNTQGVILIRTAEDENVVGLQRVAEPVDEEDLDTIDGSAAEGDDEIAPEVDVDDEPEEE
test_name: S. aureus (SAU) GyrB ATPase inhibition, malachite green phosphate detection (E. coli GyrA + S. aureus GyrB)
Format: biochemical
measurement_context: compound concentration of 1.0 μM unless otherwise noted; average value where assay was carried out more than once; read-out: S. aureus (SAU) GyrB ATPase % Inhibition
Protocol: Compounds were tested for inhibition of GyrB ATPase activity using an ammonium molybdate/malachite green-based phosphate detection assay (Lanzetta, P. A., L. J. Alvarez, P. S. Reinach, and O. A. Candia, 1979, 100: 95-97). […] Compound potency was based on IC50 measurements determined from reactions performed in the presence of 10 different compound concentrations.

{"columns": ["compound", "inhibition at 1 µM [%]"],
 "data": [
  ["CCNC(=O)Nc1cc(-c2nc(C(F)(F)F)cs2)c(-c2cncc(-c3nnc(N4CCC(O)CC4)o3)c2)cn1 [Example 180]", 96],
  ["CCNC(=O)Nc1cc(-c2nnc(-c3ccccc3)o2)c(-c2ncc(-c3nnc(C)o3)s2)cn1 [Example 230]", 91],
  ["CCNC(=O)Nc1cc(-c2nc(C(F)(F)F)cs2)c(-c2cncc(-c3nnc(NCCN(C)C)o3)c2)cn1 [Example 157]", 96],
  ["CCNC(=O)Nc1cc(-c2nc(-c3ccccn3)cs2)c(-c2cncc(S(N)(=O)=O)c2)cn1 [Example 105]", 101],
  ["CCNC(=O)Nc1cc(-c2nc(-c3cnn(C)c3)cs2)c(-c2cncc(-c3nnc(C)o3)c2)cn1 [Example 233]", 100],
  ["CCNC(=O)Nc1cc(-c2nc(C(F)(F)F)cs2)c(-c2ccnc(-c3nnc([C@@H](NC)C(C)C)o3)c2)cn1 [Example 244]", 96],
  ["CCN(CC)C(=O)Nc1cc(-c2nc(C(F)(F)F)cs2)c(-c2cncc(-c3n[nH]c(=O)o3)c2)cn1 [Example 47]", 72],
  ["CCCNC(=O)Nc1cc(-c2nc(C(F)(F)F)cs2)c(-c2cc(-c3nnc(C)o3)cnc2OCCN(C(C)C)C(C)C)cn1 [Example 123]", 78],
  ["CCNC(=O)Nc1cc(-c2nc(-c3ccccn3)cs2)c(-c2cncc(S(C)(=O)=O)c2)cn1 [Example 129]", 102],
  ["CCNC(=O)Nc1cc(-c2nc(C(F)(F)F)cs2)c(-c2cc(OCCN(C)C)nc(-c3n[nH]c(=O)o3)c2)cn1 [Example 92]", 104],
  ["CCCNC(=O)Nc1cc(-c2nc(C(F)(F)F)cs2)c(-c2cc(-c3nnc(C)o3)cnc2OCCN(C)C)cn1 [Example 167]", 96],
  ["CCNC(=O)Nc1cc(-c2nc(-c3ccccc3)cs2)c(-c2cc(-c3nnc(C)o3)nc(N3CCOCC3)c2)cn1 [Example 89]", 87],
  ["CCNC(=O)Nc1cc(-c2nc(-c3ccccc3)cs2)c(-c2cc(OCC)nc(-c3nnc(C)o3)c2)cn1 [Example 78]", 99],
  ["CCNC(=O)Nc1cc(-c2nc(-c3ccccc3)cs2)c(-c2cc(OC(C)C)nc(-c3n[nH]c(=O)o3)c2)cn1 [Example 81]", 94]
]}
